# system under test: BTK (Homo sapiens, UniProt Q06187)
# Sequence (Q06187 whole entry): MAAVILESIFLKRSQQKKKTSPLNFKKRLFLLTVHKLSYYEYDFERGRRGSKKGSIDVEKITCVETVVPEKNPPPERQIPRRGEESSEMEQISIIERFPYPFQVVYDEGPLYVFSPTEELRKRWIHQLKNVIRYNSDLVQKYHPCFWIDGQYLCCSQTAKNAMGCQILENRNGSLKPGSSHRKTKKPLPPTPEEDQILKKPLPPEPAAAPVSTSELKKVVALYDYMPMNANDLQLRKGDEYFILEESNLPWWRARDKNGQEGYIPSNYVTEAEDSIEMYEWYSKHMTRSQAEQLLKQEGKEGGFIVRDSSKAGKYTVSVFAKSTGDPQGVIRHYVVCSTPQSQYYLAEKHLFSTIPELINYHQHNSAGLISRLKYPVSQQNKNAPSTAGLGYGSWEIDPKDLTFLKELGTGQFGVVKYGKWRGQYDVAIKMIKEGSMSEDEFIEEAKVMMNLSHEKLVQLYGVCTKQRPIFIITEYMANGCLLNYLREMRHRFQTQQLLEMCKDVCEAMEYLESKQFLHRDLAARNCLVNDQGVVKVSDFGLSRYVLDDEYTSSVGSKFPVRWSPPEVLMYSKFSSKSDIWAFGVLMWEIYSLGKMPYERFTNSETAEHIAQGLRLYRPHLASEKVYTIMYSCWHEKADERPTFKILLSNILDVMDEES
# assay name: Degradation of BTK protein in Namalwa cells (Western blot; DC50, Dmax)
# condition set: BTK degradation; cell line not given
Give DC50 for every item shown.

Example entries begin here.
Bench note: what DC50 did Nc1ncnc2c1c(-c1ccc(Oc3ccccc3)cc1)nn2C1CCN(C2CCN(C(=O)N3CCC(CN4CCN(c5ccc6c(c5)C(=O)N(C5CCC(=O)NC5=O)C6=O)CC4)CC3)CC2)CC1 (centres unmarked) show?
10 to 50 nM

Bench note: what DC50 did NC(=O)c1c(-c2ccc(Oc3ccccc3)cc2)nn2c1NCCC2C1CCN(CC2CCN(C(=O)N3CCC(N4CCC(c5ccc6c(c5)C(=O)N(C5CCC(=O)NC5=O)C6=O)CC4)CC3)CC2)CC1 (centres unmarked) show?
10 to 50 nM

Bench note: what DC50 did NC(=O)c1c(-c2ccc(Oc3ccccc3)cc2)nn2c1NCCC2C1CCN(C(=O)N2CCC(CCN3CCC(c4ccc5c(c4)C(=O)N(C4CCC(=O)NC4=O)C5=O)CC3)CC2)CC1 (centres unmarked) show?
> 50 nM

Bench note: what DC50 did Nc1ncnc2c1c(-c1ccc(Oc3ccccc3)cc1)nn2C1CCN(CC2CCN(CCN3CCN(c4ccc5c(c4)C(=O)N(C4CCC(=O)NC4=O)C5=O)CC3)CC2)CC1 (centres unmarked) show?
10 to 50 nM

New cases:
Bench note: what DC50 did NC(=O)c1c(-c2ccc(Oc3ccccc3)cc2)nn2c1NCC[C@H]2C1CCN(C2CCN(CCN3CCC(c4ccc5c(c4)CN(C4CCC(=O)NC4=O)C5=O)CC3)CC2)CC1 (some centres unmarked) show?
10 to 50 nM

* * *

# system under test: BTK (Homo sapiens, UniProt Q06187)
# assay name: BTK degradation, DC50 and Dmax of Table 1 (cell line not given)
# Assay type: cell-based
# Parameters: endogenous in cells
readout name: Dmax

Bench note: what Dmax did Nc1ncnc2c1c(-c1ccc(Oc3ccccc3)cc1)nn2C1CCN(C(=O)N2CCC(N3CCC(c4ccc5c(c4)C(=O)N(C4CCC(=O)NC4=O)C5=O)CC3)CC2)CC1 (centres unmarked) show?
> 75%

Bench note: what Dmax did Nc1ncnc2c1c(-c1ccc(Oc3ccccc3)cc1)nn2[C@@H]1CCCN(C(=O)N2CCC(C3CCN(c4ccc5c(c4)CN(C4CCC(=O)NC4=O)C5=O)CC3)CC2)C1 (some centres unmarked) show?
> 90%

Bench note: what Dmax did Nc1ncnc2c1c(-c1ccc(Oc3ccccc3)cc1)nn2[C@@H]1CCCN(C2CCN(CCCN3CCC(c4ccc5c(c4)C(=O)N(C4CCC(=O)NC4=O)C5=O)CC3)CC2)C1 (some centres unmarked) show?
> 75%

Hi! Can you tell me Dmax for each of these molecules?
1. Nc1ncnc2c1c(-c1ccc(Oc3ccccc3)cc1)nn2[C@@H]1CCCN(CC2CCN(CCCC3CCN(c4ccc5c(c4)C(=O)N(C4CCC(=O)NC4=O)C5=O)CC3)CC2)C1 (some centres unmarked)
2. Nc1ncnc2c1c(-c1ccc(Oc3ccccc3)cc1)nn2[C@@H]1CCCN(C(=O)N2CCN(CCCC3CCN(c4ccc5c(c4)C(=O)N(C4CCC(=O)NC4=O)C5=O)CC3)CC2)C1 (some centres unmarked)

> 75%
> 75%

* * *

# system under test: BTK (Homo sapiens)
# assay name: Degradation of BTK protein in Namalwa cells (Western blot; DC50, Dmax)
# condition set: read-out: Dmax (BTK degradation)
readout name: Dmax

Bench note: what Dmax did Nc1ncnc2c1c(-c1ccc(Oc3ccccc3)cc1)nn2C1CCN(C(=O)C2CN(C3CCN(c4ccc5c(c4)C(=O)N(C4CCC(=O)NC4=O)C5=O)CC3)C2)CC1 (stereo not drawn) show?
> 90%

Bench note: what Dmax did Nc1ncnc2c1c(-c1ccc(Oc3ccccc3)cc1)nn2C1CCN(C2CCN(CCCCC#Cc3ccc(N4CCC(=O)NC4=O)cc3)C2)CC1 (stereo not drawn) show?
> 50%

Now for the molecule whose Dmax we want.
Bench note: what Dmax did Nc1ncnc2c1c(-c1ccc(Oc3ccccc3)cc1)nn2C1CCC(C(=O)N2CC(C3CCN(c4ccc5c(c4)CN(C4CCC(=O)NC4=O)C5=O)CC3)C2)CC1 (stereo not drawn) show?
> 90%

* * *

Give Dmax for every item shown.
# system under test: BTK (Homo sapiens)
# assay name: BTK degradation, DC50 and Dmax of Table 1 (cell line not given)
# Type: cell-based
# Design: endogenous in cells

Example entries begin here.
Bench note: what Dmax did Nc1ncnc2c1c(-c1ccc(Oc3ccccc3)cc1)nn2C1CCN(CC2CCN(C(=O)N3CCC(N4CCN(c5ccc6c(c5)CN(C5CCC(=O)NC5=O)C6=O)CC4)CC3)CC2)CC1 (centres unmarked) show?
> 90%

Bench note: what Dmax did Nc1ncnc2c1c(-c1ccc(Oc3ccccc3)cc1)nn2C1CCN(C(=O)N2CCN(CCCN3CCC(c4ccc5c(c4)C(=O)N(C4CCC(=O)NC4=O)C5=O)CC3)CC2)CC1 (centres unmarked) show?
> 75%

Bench note: what Dmax did Nc1ncnc2c1c(-c1ccc(Oc3ccccc3)cc1)nn2[C@@H]1CCCN(C(=O)N2CCN(CCC3CCN(c4ccc5c(c4)CN(C4CCC(=O)NC4=O)C5=O)CC3)CC2)C1 (some centres unmarked) show?
> 90%

Bench note: what Dmax did Nc1ncnc2c1c(-c1ccc(Oc3ccccc3)cc1)nn2[C@@H]1CCCN(C2CCN(C(=O)N3CCN(CCCN4CCC(c5ccc6c(c5)CN(C5CCC(=O)NC5=O)C6=O)CC4)CC3)CC2)C1 (some centres unmarked) show?
> 75%

Hi! Can you tell me Dmax for each of these compounds?
1. Nc1ncnc2c1c(-c1ccc(Oc3ccccc3)cc1)nn2[C@@H]1CCCN(C(=O)N2CCC(CCN3CCN(c4ccc5c(c4)CN(C4CCC(=O)NC4=O)C5=O)CC3)CC2)C1 (some centres unmarked)
2. Nc1ncnc2c1c(-c1ccc(Oc3ccccc3)cc1)nn2[C@@H]1CCCN(C(=O)N2CCC(CCC3CCN(c4ccc5c(c4)C(=O)N(C4CCC(=O)NC4=O)C5=O)CC3)CC2)C1 (some centres unmarked)
3. Nc1ncnc2c1c(-c1ccc(Oc3ccccc3)cc1)nn2C1CCN(C(=O)N2CCC(N3CCN(c4ccc5c(c4)CN(C4CCC(=O)NC4=O)C5=O)CC3)CC2)CC1 (centres unmarked)

1. > 90%
2. > 90%
3. > 75%

Hi! Can you tell me Dmax for each of these compounds?
1. Nc1ncnc2c1c(-c1ccc(Oc3ccccc3)cc1)nn2[C@@H]1CCCN(C2CCN(CCC3CCN(c4ccc5c(c4)CN(C4CCC(=O)NC4=O)C5=O)CC3)CC2)C1 (some centres unmarked)
2. Nc1ncnc2c1c(-c1ccc(Oc3ccccc3)cc1)nn2C1CCN(C(=O)N2CCC(CCC3CCN(c4ccc5c(c4)CN(C4CCC(=O)NC4=O)C5=O)CC3)CC2)CC1 (centres unmarked)
3. Nc1ncnc2c1c(-c1ccc(Oc3ccccc3)cc1)nn2C1CCN(C(=O)N2CCC(CCCC3CCN(c4ccc5c(c4)CN(C4CCC(=O)NC4=O)C5=O)CC3)CC2)CC1 (centres unmarked)
4. Nc1ncnc2c1c(-c1ccc(Oc3ccccc3)cc1)nn2[C@@H]1CCCN(C(=O)N2CCC(CCC3CCN(c4ccc5c(c4)CN(C4CCC(=O)NC4=O)C5=O)CC3)CC2)C1 (some centres unmarked)
5. Nc1ncnc2c1c(-c1ccc(Oc3ccccc3)cc1)nn2[C@@H]1CCCN(CC2CCN(CCC3CCN(c4ccc5c(c4)CN(C4CCC(=O)NC4=O)C5=O)CC3)CC2)C1 (some centres unmarked)
6. Nc1ncnc2c1c(-c1ccc(Oc3ccccc3)cc1)nn2C1CCN(C(=O)N2CCN(CCN3CCC(c4ccc5c(c4)C(=O)N(C4CCC(=O)NC4=O)C5=O)CC3)CC2)CC1 (centres unmarked)
7. Nc1ncnc2c1c(-c1ccc(Oc3ccccc3)cc1)nn2[C@@H]1CCCN(C2CCN(C(=O)N3CCN(CCC4CCN(c5ccc6c(c5)CN(C5CCC(=O)NC5=O)C6=O)CC4)CC3)CC2)C1 (some centres unmarked)
8. Nc1ncnc2c1c(-c1ccc(Oc3ccccc3)cc1)nn2[C@@H]1CCCN(C(=O)N2CCN(CCN3CCN(c4ccc5c(c4)CN(C4CCC(=O)NC4=O)C5=O)CC3)CC2)C1 (some centres unmarked)

> 75%
> 90%
> 90%
> 90%
> 90%
> 90%
> 75%
> 90%

Hi! Can you tell me Dmax for each of these compounds?
1. Nc1ncnc2c1c(-c1ccc(Oc3ccccc3)cc1)nn2C1CCN(C(=O)N2CCC(CCN3CCN(c4ccc5c(c4)CN(C4CCC(=O)NC4=O)C5=O)CC3)CC2)CC1 (centres unmarked)
2. Nc1ncnc2c1c(-c1ccc(Oc3ccccc3)cc1)nn2[C@@H]1CCCN(CC2CCN(CCCN3CCN(c4ccc5c(c4)C(=O)N(C4CCC(=O)NC4=O)C5=O)CC3)CC2)C1 (some centres unmarked)

["> 90%", "> 75%"]

Hi! Can you tell me Dmax for each of these compounds?
1. Nc1ncnc2c1c(-c1ccc(Oc3ccccc3)cc1)nn2C1CCN(CC2CCN(C(=O)N3CCC(N4CCN(c5ccc6c(c5)C(=O)N(C5CCC(=O)NC5=O)C6=O)CC4)CC3)CC2)CC1 (centres unmarked)
2. Nc1ncnc2c1c(-c1ccc(Oc3ccccc3)cc1)nn2[C@@H]1CCCN(C2CCN(C(=O)N3CCC(CCCN4CCN(c5ccc6c(c5)CN(C5CCC(=O)NC5=O)C6=O)CC4)CC3)CC2)C1 (some centres unmarked)
3. Nc1ncnc2c1c(-c1ccc(Oc3ccccc3)cc1)nn2[C@@H]1CCCN(CC2CCN(C(=O)N3CCC(C4CCN(c5ccc6c(c5)CN(C5CCC(=O)NC5=O)C6=O)CC4)CC3)CC2)C1 (some centres unmarked)

1: > 90%; 2: > 75%; 3: > 90%

The measurements presented in this section are drawn from patent US12139492B2.
